- Tested on: OVCAR3
- Test method notes: cells
- Measurement setup: read-out: Aver IC50, OVCAR3; OVCAR3 (Ovary - Adenocarcinoma); MTS, 72 hours, 37 °C, 5% CO2, 384-well; n>2 independent studies (in duplicate)
Numbered stars: 1 amine (or outer) side, 2 acyl side, 3 side chain; on linkers, the order of the positions; unused ones are H or OH. Square brackets hold non-standard residues; d marks the D form. Peptide text beside a SMILES is read from it. * marks the point of attachment. Heptanoyl(3-oxo-2,2,4S,6-Me) = CC(C)C[C@H](C)C(=O)C(C)(C)C(=O)*; NH((S)-1-NMe2-3-Me-but-2-yl) = CC(C)[C@@H](CN(C)C)N*; Ile(3R-OH) = CC[C@@](C)(O)[C@H](N)C(=O)O; dVal(3-OH) = CC(C)(O)[C@@H](N)C(=O)O; d(aIle) = CC[C@H](C)[C@@H](N)C(=O)O; Val(3-OH) = CC(C)(O)[C@H](N)C(=O)O; X1 = CCC(CC)=C(N[*:1])C(=O)[*:2]; NHCH2CH2NMe2 = CN(C)CCN*; ΔVal = CC(C)=C(N)C(=O)O

Molecule	System tested	IC50
CC[C@H](C)[C@@H](NC(C)=O)C(=O)N[C@@H](C(=O)N[C@H](C(=O)NC(C(=O)N[C@H](C)C(=O)N[C@@H](C(=O)N[C@H](C(=O)NC(C(=O)N[C@H](CN(C)C)C(C)C)=C(C)C)C(C)C)C(C)C)=C(C)C)C(C)(C)O)C(C)(C)O [Compound 24] (Ac-[d(aIle)][dVal(3-OH)][Val(3-OH)][ΔVal][dA][dV]V[ΔVal]-{NH((S)-1-NMe2-3-Me-but-2-yl)})	OVCAR3	> 25 µM
CCC(CC)=C(NC(=O)CNC(=O)C(NC(=O)[C@@H](NC(=O)C(C)(C)C(=O)[C@@H](C)CC(C)C)[C@](C)(O)CC)=C(C)C)C(=O)N[C@@H](C(=O)NCCN(C)C)C(C)C [Compound 26]	OVCAR3	> 25 µM
CC(=O)N[C@@H](C(=O)N[C@H](C(=O)NC(C(=O)N[C@H](CN(C)C)C(C)C)=C(C)C)C(C)C)C(C)C [Compound 23]	OVCAR3	> 25 µM
CCC(CC)=C(NC(=O)CNC(=O)C(NC(=O)[C@@H](NC(=O)C(C)(C)C(=O)[C@@H](C)CC(C)C)[C@](C)(O)CC)=C(C)C)C(=O)N[C@@H](C(=O)N[C@@H](C(=O)N[C@@H](C(=O)N[C@H](C(=O)NC(C(=O)N[C@H](C)C(=O)NCCN(C)C)=C(C)C)C(C)(C)O)C(C)(C)O)[C@@H](C)CC)C(C)C [Compound 30] ({Heptanoyl(3-oxo-2,2,4S,6-Me)}-[Ile(3R-OH)][ΔVal]G[X1][dV][d(aIle)][dVal(3-OH)][Val(3-OH)][ΔVal][dA]-NHCH2CH2NMe2)	OVCAR3	12.6 µM

Reference source: paper PMC8848768
